Reference source: PubChem BioAssay

Recorded composite z-score, one value per entry.
assay: binders of probe aFST on microarray, primary screen, stem cell growth factor project, biochemical, small-molecule microarray, fluorescence 635/667 (AID 1086); settings: higher = more signal;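 note: score merges 667 nm fluorescence with signal-to-noise of each printed compound spot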
Please respond with just the number, no unit label.

Some entries whose results are on file:
O=C1CCCC=C1C(O)c1ccc([N+](=O)[O-])cc1 (stereo unspecified): -0.315
CC(CCN1CCCCc2nc(C)c(C)cc21)=NOC[C@@H](O)[C@H]1O[C@@H]2OC(C)(C)O[C@@H]2[C@H]1O: -0.346
COC(=O)[C@H](C)NC(=O)CCC1CC(OC(=O)NCc2cccc3ccccc23)CC2(CCCC(COC(=O)NCc3cccc(C(F)(F)F)c3)O2)O1 (stereo partly specified): 0.657
CCOC(=O)NN=C1C[C@@H](O)[C@@H](O)[C@@H]2[C@@H]3C(=O)N(CC)C(=O)[C@@H]3CC[C@H]12: 0.007
CC(CCC(=O)OC[C@H]1O[C@H](C#Cc2ccccc2)C=C[C@@H]1Oc1ccc(C)cc1)=NOC(C)CN1CCCCc2nc(C)c(C)cc21 (stereo partly specified): -0.697

Lookup result for CC(CCN1CCCCc2nc(C)c(C)cc21)=NO[C@H](C)c1cn([C@@H]2COC[C@H]2O)nn1 ; measured composite z-score: 0.462

Lookup result for CO[C@@H]1COC(=O)[C@H](COCc2ccccc2)NC(=O)CC=C[C@@H](C)[C@H](OC)COC(=O)[C@@H](C)NC(=O)CC=C[C@H]1C ; measured composite z-score: -0.0711

Lookup result for CC1(C)O[C@H]2OC([C@H](O)CON3C(=O)c4ccccc4C3=O)[C@H](O)[C@H]2O1 (stereo partly specified) ; measured composite z-score: 0.169

Lookup result for O=C1C=C[C@@H](O)[C@@H]2[C@@H]3C(=O)N(Cc4ccc5c(c4)OCO5)C(=O)[C@@H]3CC[C@@H]12 ; measured composite z-score: 0.233

Lookup result for COc1ccc(COC(=O)NN=C2C[C@@H](O)[C@@H](O)[C@@H]3[C@@H]4C(=O)N(c5cccc(Oc6ccccc6)c5)C(=O)[C@@H]4CC[C@H]23)cc1 ; measured composite z-score: 0.85

Lookup result for CCOC(=O)[C@H](Cc1ccccc1)NC(=O)CCC1CC(OC(=O)NCc2ccc3c(c2)OCO3)CC2(CCCC(COC(=O)NCCOc3ccccc3)O2)O1 (stereo partly specified) ; measured composite z-score: 0.672

Lookup result for Cc1ccc(C(C)C)n1C(=O)OC(C)(C)C ; measured composite z-score: -0.3

Lookup result for CC(=O)OC[C@H]1O[C@H](CC=NO[C@@H](C)c2cc(-c3c(C)cc(C)cc3C)no2)C=C[C@@H]1OC(C)=O ; measured composite z-score: -0.122

----------
biological target: Neurogenic locus notch homolog protein 3 (Homo sapiens) (UniProt Q9UM47); experiment: NOTCH3 binders on small-molecule microarray, primary screen, biochemical, 635/667 nm fluorescence (AID 1096); details: NOTCH3 binding, 635 nm fluorescence, higher = more signal
Sequence (Q9UM47 whole entry, looked up): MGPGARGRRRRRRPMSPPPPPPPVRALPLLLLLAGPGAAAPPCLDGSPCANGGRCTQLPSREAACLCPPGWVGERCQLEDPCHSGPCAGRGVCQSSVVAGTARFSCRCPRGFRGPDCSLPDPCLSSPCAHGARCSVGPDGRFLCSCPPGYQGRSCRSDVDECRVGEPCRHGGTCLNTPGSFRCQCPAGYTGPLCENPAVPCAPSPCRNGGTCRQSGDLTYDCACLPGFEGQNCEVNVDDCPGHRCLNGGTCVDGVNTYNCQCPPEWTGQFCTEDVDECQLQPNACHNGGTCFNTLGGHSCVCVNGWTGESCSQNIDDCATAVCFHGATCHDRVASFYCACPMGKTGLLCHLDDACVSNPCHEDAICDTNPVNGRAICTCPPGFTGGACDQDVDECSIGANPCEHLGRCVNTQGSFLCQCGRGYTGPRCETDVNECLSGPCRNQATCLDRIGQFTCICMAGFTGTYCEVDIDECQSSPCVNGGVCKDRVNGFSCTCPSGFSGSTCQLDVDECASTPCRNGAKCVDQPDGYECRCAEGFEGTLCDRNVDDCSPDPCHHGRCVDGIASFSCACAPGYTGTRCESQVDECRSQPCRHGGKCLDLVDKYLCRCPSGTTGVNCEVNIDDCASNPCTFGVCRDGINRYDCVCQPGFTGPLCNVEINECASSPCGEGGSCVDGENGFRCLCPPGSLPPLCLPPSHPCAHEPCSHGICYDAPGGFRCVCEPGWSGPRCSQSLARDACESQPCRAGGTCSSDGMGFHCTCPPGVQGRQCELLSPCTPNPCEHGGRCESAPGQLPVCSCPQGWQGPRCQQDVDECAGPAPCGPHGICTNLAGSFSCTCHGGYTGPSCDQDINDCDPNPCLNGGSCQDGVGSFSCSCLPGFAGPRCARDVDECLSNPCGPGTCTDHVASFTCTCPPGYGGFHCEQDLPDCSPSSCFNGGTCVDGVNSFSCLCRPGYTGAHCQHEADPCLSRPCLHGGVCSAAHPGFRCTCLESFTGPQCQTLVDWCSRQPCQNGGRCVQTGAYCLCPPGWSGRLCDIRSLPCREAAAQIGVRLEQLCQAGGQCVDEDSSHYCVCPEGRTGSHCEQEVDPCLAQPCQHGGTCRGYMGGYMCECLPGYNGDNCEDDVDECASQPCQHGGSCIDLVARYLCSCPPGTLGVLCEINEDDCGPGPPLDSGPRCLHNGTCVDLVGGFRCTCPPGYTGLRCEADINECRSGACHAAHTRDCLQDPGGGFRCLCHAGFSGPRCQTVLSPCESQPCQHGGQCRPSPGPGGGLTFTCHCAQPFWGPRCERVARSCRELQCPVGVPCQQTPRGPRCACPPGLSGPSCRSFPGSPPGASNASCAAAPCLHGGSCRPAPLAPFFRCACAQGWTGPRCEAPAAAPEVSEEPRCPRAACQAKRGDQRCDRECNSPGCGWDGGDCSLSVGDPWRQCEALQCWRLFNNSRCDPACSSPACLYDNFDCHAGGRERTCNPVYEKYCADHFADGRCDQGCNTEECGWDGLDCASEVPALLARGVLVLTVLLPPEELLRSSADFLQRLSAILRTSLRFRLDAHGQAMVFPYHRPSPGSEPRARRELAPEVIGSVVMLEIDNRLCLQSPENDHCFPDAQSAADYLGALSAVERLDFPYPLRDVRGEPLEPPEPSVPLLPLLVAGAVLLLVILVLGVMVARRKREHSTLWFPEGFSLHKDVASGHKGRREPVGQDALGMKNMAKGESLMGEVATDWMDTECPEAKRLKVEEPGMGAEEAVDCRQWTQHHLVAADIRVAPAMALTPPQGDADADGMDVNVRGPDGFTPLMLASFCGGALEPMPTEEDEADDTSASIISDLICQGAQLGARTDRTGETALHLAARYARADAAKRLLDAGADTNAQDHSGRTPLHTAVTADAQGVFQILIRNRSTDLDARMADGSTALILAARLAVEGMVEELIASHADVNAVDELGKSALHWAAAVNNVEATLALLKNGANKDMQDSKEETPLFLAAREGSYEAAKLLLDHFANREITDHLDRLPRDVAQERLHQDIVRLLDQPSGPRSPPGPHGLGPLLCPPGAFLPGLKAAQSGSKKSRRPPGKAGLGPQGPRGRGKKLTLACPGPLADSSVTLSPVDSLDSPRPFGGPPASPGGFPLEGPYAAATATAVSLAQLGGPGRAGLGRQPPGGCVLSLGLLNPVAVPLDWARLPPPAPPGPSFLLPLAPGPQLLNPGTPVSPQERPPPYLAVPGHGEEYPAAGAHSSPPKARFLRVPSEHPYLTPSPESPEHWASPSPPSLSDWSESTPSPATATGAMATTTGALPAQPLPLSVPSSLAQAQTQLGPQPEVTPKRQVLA
Recorded composite z-score, one value per entry.
Please respond with just the number, no unit label.

COC(OC)[C@@H](C)[C@H](OC)[C@@H](C)[C@H](OC)c1ccccc1: 0.181

Kindly review the next molecule as well.
Lookup result for CC(=O)OC[C@H]1O[C@@H](ON=C(C)CCN2CCCCc3nc(C)c(C)cc32)[C@H](OC(C)=O)[C@@H](OC(C)=O)[C@@H]1OC(C)=O ; measured composite z-score: 0.927

----------
Recorded composite z-score, one value per entry.
biological target: Fibroblast growth factor 10 (Homo sapiens); assay: FGF10 binders on small-molecule microarrays, primary screen, biochemical, small-molecule microarray, 635 nm fluorescence (AID 1102); details: FGF10 binding, fluorescence 635 nm, higher = more signal
Please respond with just the number, no unit label.

Some entries whose results are on file:
O=C1C=C[C@@H](O)[C@@H]2[C@@H]3C(=O)N(Cc4ccccc4)C(=O)[C@@H]3CC[C@@H]12: 0.659
CC(C)[C@H](NC(=O)OC(C)(C)C)[C@@H](O)CC(=O)C(C)(C)C: 0.159
CC(C)CON=C1[C@H]2CCn3c(=O)n(C)c(=O)n3[C@H]2[C@H](O)[C@@H]2O[C@H]12: 0.401
CCOC(=O)CCN1C(=O)[C@H]2[C@H]3[C@H](O)[C@H](O)CC(=NNC(=O)OCc4ccccc4)[C@H]3CC[C@H]2C1=O: -0.193
CCOC(=O)[C@H](CC(C)C)NC(=O)CCC1CC(OC(=O)NCc2ccc3c(c2)OCO3)CC2(CCCC(COC(=O)NCCc3ccc(Cl)cc3)O2)O1 (some centres not stated): 0.525
COc1ccc(COC(=O)NN=C2C[C@@H](O)[C@@H](O)[C@@H]3[C@@H]4C(=O)N(Cc5ccccc5)C(=O)[C@@H]4CC[C@@H]23)cc1: 0.193

Kindly review the next compound as well.
Bench note, Fibroblast growth factor 10 (Homo sapiens): entry C[C@@H]1CC[C@H]2C(=O)OC(CN3C(=O)c4ccccc4C3=O)CN2[C@H]1c1ccc(Br)cc1 (some centres not stated) , its composite z-score = 0.398

----------
Recorded z-score, one value per entry.
assay: yeast growth modulation, basal conditions, primary screen, YJM789 clinical isolate, OD600, 24 h (AID 1089);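 note: growth of clinical yeast isolate S. cerevisiae YJM 789 seeded 1000 cells per well; test concentration not given here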; settings: S. cerevisiae YJM789 growth, higher = more signal, called active from +8 up or from −8 down
Please respond with just the number, no unit label.

Some entries whose results are on file:
CCOC(=O)[C@H](CC(C)C)NC(=O)CCC1CC(OC(=O)NCCc2ccc(F)cc2)CC2(CCCC(COC(=O)NCCOC)O2)O1 (some centres undefined): 0.513
CC(CCN1CCCc2nc(C)c(C)cc21)=NOC[C@@H](C)[C@H](OCc1ccccc1)C(C)C: -2.02
CCOC(=O)[C@H](Cc1ccccc1)NC(=O)CCC1CC(OC(=O)NCc2cccc3ccccc23)CC2(CCCC(COC(=O)NCCOc3ccccc3)O2)O1 (some centres undefined): -0.851

Kindly review the next compound as well.
Lookup result for C[C@H]1CC[C@H]2C(=O)OC(COc3ccc(C(C)(C)C)cc3)CN2[C@@H]1c1ccc(Br)cc1 (some centres undefined) ; measured z-score: -0.498

----------
test system: Fibrinogen (Alexa647-labelled); test: fibrinogen binders on compound microarrays, profiling panel, artefact control for SMM control-protein annotation, biochemical, small-molecule microarray, 635/667 nm fluorescence (AID 1131); settings: fibrinogen-A647 binding fluorescence, higher = more signal;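 note: z-score merges 667 nm fluorescence with per-spot signal-to-noise over triplicate slides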
Recorded composite z-score, one value per entry.
Please respond with just the number, no unit label.

Some entries whose results are on file:
O=C1C2=CC[C@H]3C(=O)N(C4CCCCC4)C(=O)[C@H]3[C@H]2[C@H](O)[C@@H]2O[C@H]12: 0.0555
CC(=O)OC[C@H]1O[C@H](CCON=C(C)C)C=C[C@@H]1OC(C)=O: 0.0586
O=C1C2=CC[C@H]3C(=O)N(c4ccc(F)cc4F)C(=O)[C@H]3[C@H]2[C@H](O)[C@@H]2O[C@H]12: 0.0936

Bench note, Fibrinogen (Alexa647-labelled): entry CCOC(=O)CCN1C(=O)[C@H]2[C@H]3[C@H](O)[C@H](O)CC(=NOCC(C)C)[C@@H]3CC[C@H]2C1=O , its composite z-score = -0.586

----------
tested on: Human papillomavirus type 1a protein E7 (residues 44-93); assay: HPV1a E7 fragment binders on microarrays, primary screen, biochemical, small-molecule microarray, residues 44-93, 635 nm fluorescence (AID 1108); conditions: small-molecule microarray binding, fluorescence 635 nm; higher = more signal;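 note: E7 fragment applied at 1 µg/mL in TBST for 1 h at 4 C; score combines spot fluorescence with its signal to noise ratio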
Recorded composite z-score, one value per entry.

Some entries whose results are on file:
C#CCCCON=C1C[C@@H](O)[C@@H](O)[C@@H]2[C@@H]3C(=O)N([C@@H](C)c4ccccc4)C(=O)[C@@H]3CC[C@@H]12: -0.31
CO[C@@H]1COC(=O)CC=C[C@H](C)[C@H](OC)COC(=O)[C@@H]2CCCN2C(=O)CC=C[C@H]1C: -0.496
CON=C(C)CCC(=O)OC[C@H]1O[C@H](C#Cc2ccccc2)C=C[C@@H]1Oc1ccc(C)cc1: 0.247
O=C1C2=CC[C@H]3C(=O)N(C[C@@H]4CCCO4)C(=O)[C@H]3[C@H]2[C@H](O)[C@@H]2O[C@H]12: 0.0207
CCc1cc2c(nc1CC)CCN(CCC(C)=NOC[C@@H](C)[C@H](OCc1ccccc1)C(C)C)C2: -0.461
CC(C)[C@@H](OCc1ccccc1)[C@H](C)CON=C1[C@H]2CCn3c(=O)n(-c4ccccc4)c(=O)n3[C@H]2[C@H](O)[C@@H]2O[C@H]12: 0.416

Kindly review the next molecule as well.
Lookup result for O=C1[C@H]2[C@H]3[C@H](O)[C@H](O)CC(=NOCc4ccccc4)[C@@H]3CC[C@H]2C(=O)N1c1cccc(Oc2ccccc2)c1 ; measured composite z-score: 1.32

----------
experiment: basal MM1S mitochondrial membrane potential changes, profiling panel, cell-based, JC-1 fluorescence, 24 h, 100 nL compound (AID 1170); conditions: higher = more signal; note: test concentration not given here
MEASURE: z-score
Please respond with just the number, no unit label.

Some entries whose results are on file:
O=C(NN=C1C[C@@H](O)[C@@H](O)[C@@H]2[C@@H]3C(=O)N(Cc4ccc5c(c4)OCO5)C(=O)[C@@H]3CC[C@@H]12)OCc1ccccc1: -1.65
O=C1CCCC=C1C(O)c1ccc([N+](=O)[O-])cc1 (stereo not given): 0.502
CC(CCN1CCCc2nc(C)c(C)cc21)=NO[C@H](C)c1cn([C@H](CO)Cc2ccccc2)nn1: 0.859
CCCNC(=O)OC[C@H]1O[C@H](CCON=C2C[C@@H](O)[C@@H](O)[C@@H]3[C@@H]4C(=O)N(CC)C(=O)[C@@H]4CC[C@@H]23)C=C[C@@H]1Oc1ccc(OC)cc1: -0.39
CC(C)(C)N1C(=O)[C@H]2[C@H]3[C@H](O)[C@H](O)CC(=NNC(=O)OCc4ccccc4)[C@H]3CC[C@H]2C1=O: -0.823

Lookup result for COc1ccc(O[C@H]2C=C[C@@H](C#Cc3ccccc3)O[C@@H]2CO)cc1 ; measured z-score: -1.46

Lookup result for CON=C1c2cc(OC)ccc2O[C@H](c2cccc(OC)c2)[C@H]1O ; measured z-score: 1.39

Lookup result for O=C1C[C@@H](O)[C@@H](O)[C@@H]2[C@@H]3C(=O)N(c4ccc(F)cc4F)C(=O)[C@@H]3CC[C@H]12 ; measured z-score: 0.448

Lookup result for CC(CCN1CCCc2nc(C)c(C)cc21)=NOC[C@@H](O)COCc1ccco1 ; measured z-score: -0.0723

Lookup result for COc1ccc(COC(=O)NN=C2C[C@@H](O)[C@@H](O)[C@@H]3[C@@H]4C(=O)N(c5cccc(Oc6ccccc6)c5)C(=O)[C@@H]4CC[C@H]23)cc1 ; measured z-score: -1.73

Lookup result for CCOC(=O)[C@H](CC(C)C)NC(=O)CCC1CC(OC(=O)NCc2ccc3c(c2)OCO3)CC2(CCCC(COC(=O)NCCc3ccccc3OC)O2)O1 (stereo not given in full) ; measured z-score: -0.501

Lookup result for COc1ccc(OC[C@@H](CO)OC)cc1 ; measured z-score: 0.674
